- METHOD DESCRIPTION: pH of solutions in distilled water
- Format: physicochemical
- CONDITION LABEL: 0.2 g/liter in distilled water
- Procedure: The neuropsychopharmacological study was undertaken according to the procedures described above for CRL 41 153, CRL 41 213 being adminstered intraperitoneally, in solution in distilled water, in a volume of 20 ml/kg to male mice and a volume of 5 ml/kg to male rats, and the pH of the injected solution varying with the concentration of CRL 41 213 according to the data given in Table II below.
Structures can show the parent of a compound that is named as a salt.
ASSAY READOUT: pH

1) CC(C(=O)c1ccc(N)cc1)N1CCCC1 (stereo not shown) [CRL 41 222, dihydrochloride] | 4.5
2) CC(C(=O)c1ccc(N)cc1)N1CCN(C)CC1 (stereo not shown) [CRL 41 243] | 4.5
3) CCNC(C)C(=O)c1ccc(N)cc1 (stereo not shown) [CRL 41 225] | 4.5
4) CC(C(=O)c1ccc(N)cc1)N(C)C (stereo not shown) [CRL 41 233] | 4.5
5) CC(C(=O)c1ccc(N)cc1)N1CCOCC1 (stereo not shown) [CRL 41 237, dihydrochloride] | 4.5
6) CCCNC(C)C(=O)c1ccc(N)cc1 (stereo not shown) [CRL 41 213] | 4.0
7) CC(C(=O)c1ccc(N)cc1)N1CCSCC1 (stereo not shown) [CRL 41 248] | 4.0

====

- METHOD DESCRIPTION: pH of solutions in distilled water
- Format: physicochemical
- CONDITION LABEL: 0.8 g/liter in distilled water
Structures can show the parent of a compound that is named as a salt.
ASSAY READOUT: pH

1. CC(NC1CC1)C(=O)c1ccc(N)cc1 (stereo not shown) | 4.0
2. CC(C(=O)c1ccc(N)cc1)N1CCCC1 (stereo not shown) [CRL 41 222, dihydrochloride] | 3.5
3. CCNC(C)C(=O)c1ccc(N)cc1 (stereo not shown) | 3.5
4. CCCNC(C)C(=O)c1ccc(N)cc1 (stereo not shown) | 3.0
5. CC(C(=O)c1ccc(N)cc1)N(C)C (stereo not shown) | 3.5
6. CC(C(=O)c1ccc(N)cc1)N1CCN(C)CC1 (stereo not shown) | 3.5
7. CC(C(=O)c1ccc(N)cc1)N1CCOCC1 (stereo not shown) [CRL 41 237, dihydrochloride] | 3.5

====

- Tested on: gravid White New Zealand female rabbits
- METHOD DESCRIPTION: Teratogenicity in gravid White New Zealand rabbits
- Format: in vivo, rabbit
- CONDITION LABEL: 50 mg/kg daily, day 5 to day 18 of gestation; normal limit 1.5%
Where a name gives a salt, the structure may show the parent alone.
ASSAY READOUT: Affected foetuses, % (%)

1) CC(C(=O)c1ccc(N)cc1)N1CCN(C)CC1 (stereo not drawn) [CRL 41 243] | 0
2) CC(C(=O)c1ccc(N)cc1)N1CCOCC1 (stereo not drawn) [CRL 41 237, dihydrochloride] | 1.13
3) Nc1ccc(C(=O)CCN2CCOCC2)cc1 [A 9, reference compound] | 7.31
4) CC(NC(C)(C)C)C(=O)c1ccc(N)cc1 (stereo not drawn) [CRL 41 178] | 1.10
5) CC(C)NC(C)C(=O)c1ccc(N)cc1 (stereo not drawn) [CRL 41 153, dihydrochloride] | 0
6) CNC(C)C(=O)c1ccc(N)cc1 (stereo not drawn) [CRL 41 218, dihydrochloride] | 1.26

====

- METHOD DESCRIPTION: pH of solutions in distilled water
- Assay type: physicochemical
- CONDITION LABEL: 0.4 g/liter in distilled water
Where a name gives a salt, the structure may show the parent alone.
# pH per record follows
ASSAY READOUT: pH

1. CCCNC(C)C(=O)c1ccc(N)cc1 (centres unmarked) | 3.5
2. CC(C(=O)c1ccc(N)cc1)N1CCOCC1 (centres unmarked) [CRL 41 237, dihydrochloride] | 4.0
3. CC(NC1CC1)C(=O)c1ccc(N)cc1 (centres unmarked) | 4.5
4. CC(C(=O)c1ccc(N)cc1)N1CCCC1 (centres unmarked) [CRL 41 222, dihydrochloride] | 4.0
5. CC(C(=O)c1ccc(N)cc1)N1CCN(C)CC1 (centres unmarked) | 4.0
6. CC(C(=O)c1ccc(N)cc1)N1CCSCC1 (centres unmarked) | 3.5
7. CC(C(=O)c1ccc(N)cc1)N(C)C (centres unmarked) | 4.0
8. CCNC(C)C(=O)c1ccc(N)cc1 (centres unmarked) | 4.0

====

Form field: Affected foetuses, number (one value per entry).
- Tested on: gravid White New Zealand female rabbits
- METHOD DESCRIPTION: Teratogenicity in gravid White New Zealand rabbits
- Format: in vivo, rabbit
- CONDITION LABEL: 10 mg/kg daily, day 5 to day 18 of gestation
ASSAY READOUT: Affected foetuses, number

1) CC(C(=O)c1cccc(N)c1)N(C)C (centres unmarked) | 1
2) CN1CCN(CCC(=O)c2ccc(N)cc2)CC1 [A 11, reference compound] | 6
3) Nc1cccc(C(=O)CN2CCCC2)c1 [A 21, reference compound] | 4
4) Nc1ccc(C(=O)CCCN2CCCC2)cc1 [A 6, reference compound] | 5
5) CC(C)NCCCC(=O)c1cc(Cl)c(N)c(Cl)c1 [A 3, reference compound] | 5
6) CN(C)CCC(=O)c1ccc(N)cc1 [A 8, reference compound] | 5
7) CC(C(=O)c1ccc(N)cc1)N1CCCCC1 (centres unmarked) | 0
8) CC(C)(C)NCCCC(=O)c1ccc(N)cc1 [A 2, reference compound] | 4
9) Nc1ccc(C(=O)CCN2CCOCC2)cc1 [A 9, reference compound] | 0
10) CC(C)NCC(=O)c1cccc(N)c1 [A 15, reference compound] | 14
11) CCC1CCCCN1C(C)C(=O)c1ccc(N)c(Br)c1 (centres unmarked) [A 22, reference compound] | 13
12) CC(C(=O)c1ccc(N)cc1)N1CCSCC1 (centres unmarked) | 1
13) CC(NC1CC1)C(=O)c1ccc(N)cc1 (centres unmarked) | 0
14) CCNCCC(=O)c1ccc(N)cc1 [A 7, reference compound] | 4

====

- Test system: gravid White New Zealand female rabbits
- METHOD DESCRIPTION: Teratogenicity in gravid White New Zealand rabbits
- Type: in vivo, rabbit
- CONDITION LABEL: 10 mg/kg daily, day 5 to day 18 of gestation
Structures can show the parent of a compound that is named as a salt.
Could you mark each record fulfilled if its Total foetuses (live) falls strictly under 90, and not fulfilled if it equals or exceeds it?

1. Nc1ccc(C(=O)CCN2CCCCC2)cc1 [A 10, reference compound] | fulfilled
2. CCNC(C)C(=O)c1ccc(N)cc1 (stereo not drawn) [CRL 41 225] | not fulfilled
3. CCC1CCCCN1C(C)C(=O)c1ccc(N)c(Br)c1 (stereo not drawn) [A 22, reference compound] | fulfilled
4. CC(NC(C)(C)C)C(=O)c1ccc(N)cc1 (stereo not drawn) [CRL 41 178] | fulfilled
5. CC(NC1CC1)C(=O)c1ccc(N)cc1 (stereo not drawn) [CRL 41 246] | not fulfilled
6. Nc1cccc(C(=O)CN2CCCCC2)c1 [A 19, reference compound] | fulfilled
7. CC(C(=O)c1ccc(N)cc1)N1CCOCC1 (stereo not drawn) [CRL 41 237, dihydrochloride] | not fulfilled
8. CC(C)(C)NCCCC(=O)c1ccc(N)cc1 [A 2, reference compound] | fulfilled

====

We begin with a simple list: items and their reported Total foetuses (live).
- Test system: gravid White New Zealand female rabbits
- METHOD DESCRIPTION: Teratogenicity in gravid White New Zealand rabbits
- Type: in vivo, rabbit
- CONDITION LABEL: 10 mg/kg daily, day 5 to day 18 of gestation
Counter-ions that a name gives are not always drawn.
ASSAY READOUT: Total foetuses (live)

1. CN(C)CCC(=O)c1ccc(N)cc1 [A 8, reference compound] | 81
2. CC(C)NC(C)C(=O)c1cc(Cl)c(N)c(Cl)c1 (stereo not drawn) [CRL 41 194, hydrochloride] | 91
3. CC(C)NCC(=O)c1cccc(N)c1 [A 15, reference compound] | 52

====

Attribute: Affected foetuses, %
- System: gravid White New Zealand female rabbits
- METHOD DESCRIPTION: Teratogenicity in gravid White New Zealand rabbits
- Assay type: in vivo, rabbit
- CONDITION LABEL: 10 mg/kg daily, day 5 to day 18 of gestation; normal limit 1.5%
Where a name gives a salt, the structure may show the parent alone.
ASSAY READOUT: Affected foetuses, % (%)

1) Nc1ccc(C(=O)CCCN2CCCC2)cc1 [A 6, reference compound] | 5.81
2) CC(C(=O)c1cccc(N)c1)N1CCCCC1 (centres unmarked) [CRL 41 263, dihydrochloride] | 0
3) CC(C)NC(C)C(=O)c1cc(Cl)c(N)c(Cl)c1 (centres unmarked) [CRL 41 194, hydrochloride] | 0
4) Nc1ccc(C(=O)CN2CCOCC2)cc1 [A 16, 1-(4-aminophenyl)-2-morpholinylethanone, reference compound] | 26.0
5) CCNC(C)C(=O)c1ccc(N)cc1 (centres unmarked) | 0
6) CC(C)NC(C)C(=O)c1ccc(N)c(Cl)c1 (centres unmarked) [CRL 41 221, hydrochloride] | 1.14
7) Nc1ccc(C(=O)CCN2CCSCC2)cc1 [A 13, reference compound] | 27.90
8) CC(C)(C)NCCCC(=O)c1ccc(N)cc1 [A 2, reference compound] | 4.70
9) CC(C(=O)c1ccc(N)cc1)N1CCOCC1 (centres unmarked) [CRL 41 237, dihydrochloride] | 1.04
10) CN(C)CCC(=O)c1ccc(N)cc1 [A 8, reference compound] | 6.17
11) Nc1ccc(C(=O)CCN2CCCCC2)cc1 [A 10, reference compound] | 5.12
12) CC(C(=O)c1cccc(N)c1)N1CCOCC1 (centres unmarked) | 1.11
13) CC(NC1CC1)C(=O)c1ccc(N)cc1 (centres unmarked) | 0
14) Nc1cccc(C(=O)CN2CCOCC2)c1 [A 17, reference compound] | 23.91
15) CC(C)NCCCC(=O)c1cc(Cl)c(N)c(Cl)c1 [A 3, reference compound] | 6.09
16) CN1CCN(CCC(=O)c2ccc(N)cc2)CC1 [A 11, reference compound] | 7.50
17) CC(NC(C)(C)C)C(=O)c1ccc(N)cc1 (centres unmarked) | 1.20
18) Nc1ccc(C(=O)CCN2CCOCC2)cc1 [A 9, reference compound] | 0
19) CC(C(=O)c1ccc(N)cc1)N1CCCC1 (centres unmarked) [CRL 41 222, dihydrochloride] | 0
20) CC(C)NC(C)C(=O)c1cccc(N)c1 (centres unmarked) | 1.12
21) CC(C)NC(C)C(=O)c1ccc(N)cc1 (centres unmarked) [CRL 41 153, dihydrochloride] | 1.13
22) CC(C)NCC(=O)c1ccc(N)cc1 [A 14, reference compound] | 3.94
23) CC(C(=O)c1cccc(N)c1)N(C)C (centres unmarked) | 1.14
24) CCNCCC(=O)c1ccc(N)cc1 [A 7, reference compound] | 5.06
25) CC(C(=O)c1ccc(N)cc1)N1CCCCC1 (centres unmarked) | 0
26) Nc1cccc(C(=O)CN2CCCCC2)c1 [A 19, reference compound] | 4.83
27) CCCNC(C)C(=O)c1cccc(N)c1 (centres unmarked) | 1.08
28) CCC1CCCCN1C(C)C(=O)c1ccc(N)c(Br)c1 (centres unmarked) [A 22, reference compound] | 28.26
29) CC(C(=O)c1ccc(N)cc1)N(C)C (centres unmarked) | 0
30) CC(C)NCC(=O)c1cccc(N)c1 [A 15, reference compound] | 26.92
31) CC(C)NCCCC(=O)c1ccc(N)cc1 [A 1, reference compound] | 4.59
32) Nc1cccc(C(=O)CN2CCCC2)c1 [A 21, reference compound] | 5.12

Values from patent US4980377A
